# credit: patent US8178506B2

System: HeLa cells
testSummary: Cell cycle assay in HeLa cells
Type: cell-based, human
protocolConditions: HeLa cells, 150 nM oligomeric compound, 24 hours, relative to untreated control (UTC = 100)
In the oligonucleotide strings, read from the 5' end, every base follows the letter of its sugar. An asterisk marks phosphorothioate; unmarked linkages are phosphodiester. Other units and linkages are bracketed, terminal groups are in braces. A string of capitals states the bases alone. e = 2'-O-(2-methoxyethyl) (MOE); [5mC] = 5-methylcytosine; d = 2'-deoxy (DNA)
So I've got a bunch of substances here, and I need their % cells in cell cycle phase G1 values.
State just the number; it will be interpreted in %.

IN: % cells in cell cycle phase G1 for 328421 (antisense eG*e[5mC]*eT*eT*eA*dG*d[5mC]*dT*dG*dT*dG*dT*d[5mC]*dT*dT*eA*e[5mC]*eA*eG*e[5mC]) [compound 328421] ?
OUT: 47

IN: % cells in cell cycle phase G1 for 328727 (antisense e[5mC]*eT*eG*e[5mC]*eT*d[5mC]*d[5mC]*dA*dG*dA*dG*d[5mC]*d[5mC]*d[5mC]*dG*eA*eG*eT*e[5mC]*eG) [compound 328727] ?
OUT: 133

IN: % cells in cell cycle phase G1 for 328644 (eG*eA*e[5mC]*eA*eA*dG*dG*dT*dG*dG*dG*dA*dG*d[5mC]*dG*eA*eG*eT*eG*eG; antisense) [compound 328644] ?
OUT: 113

IN: % cells in cell cycle phase G1 for 327922 (antisense eT*e[5mC]*eA*eG*eT*eT*eT*eT*eG*e[5mC]*eA*eT*eG*eG*eA*eT*eT*eT*eG*e[5mC]*eA*e[5mC]*eA) [compound 327922] ?
OUT: 97

IN: % cells in cell cycle phase G1 for 338826 (antisense CGGATCCTGTTACCTCACCA; all 2'-MOE, all phosphorothioate, methylation of C not given here) [compound 338826] ?
OUT: 148

IN: % cells in cell cycle phase G1 for 327878 (antisense e[5mC]*eT*eA*eG*eT*eG*eG*eT*e[5mC]*e[5mC]*eT*eA*eA*eA*e[5mC]*eA*eT*eT*eT*e[5mC]*eA*e[5mC]) [compound 327878] ?
OUT: 96

IN: % cells in cell cycle phase G1 for 327904 (antisense eA*e[5mC]*eT*e[5mC]*eA*e[5mC]*e[5mC]*eG*eA*e[5mC]*eA*eG*e[5mC]*eG*eT*eT*eG*eA*eA*eT*eG*eT*eT) [compound 327904] ?
OUT: 99

IN: % cells in cell cycle phase G1 for 327949 (antisense e[5mC]*eA*e[5mC]*eA*eA*eA*eT*eT*e[5mC]*eG*eG*eA*eT*e[5mC]*eT*eA*e[5mC]*eA*eG*eG*eG*eT*eA) [compound 327949] ?
OUT: 82

IN: % cells in cell cycle phase G1 for 328759 (antisense eG*eA*eG*eG*eG*dA*dT*dT*dG*dT*dA*dT*dG*dA*dA*e[5mC]*eA*eT*e[5mC]*eT) [compound 328759] ?
OUT: 88

IN: % cells in cell cycle phase G1 for 338750 (antisense TCCGCGGGGGCGGGGAGGCT; all 2'-MOE, all phosphorothioate, methylation of C not given here) [compound 338750] ?
OUT: 148

IN: % cells in cell cycle phase G1 for 328707 (eG*e[5mC]*eA*eA*e[5mC]*dA*dG*dG*d[5mC]*d[5mC]*dT*d[5mC]*dA*dA*dT*eA*eT*e[5mC]*eT*eT) [compound 328707] ?
OUT: 36
